Listing: koff of selected binders
- assay target: T1, recombinant human C5 (human, UniProt P01031 20-1676)
- T1 construct: The same entry is used here for C5 in normal human serum in the functional rows; also called hC5; rhC5
- assay overview: SPR (BIACORE T200), antibody captured by ProA/G, recombinant human C5 injected, 37 degrees C, pH7.4; pH 7.4
Give just the numeric value; s⁻¹ need not be written.

Study these solved cases before continuing.
[
  {
    "binder": "CFA0341 (antibody, V domains shown) VH: QSVEESGGRLVTPGTPLTLTCTVSGIDLSSYTMGWVRQAPGKGLECIGYIHSFGSTYYASWAKGRFTISKTSTTVDLEITSPTTEDTATYFCARDVGGSSGWDLWGQGTLVTVSS VL: DVVMTQTPSSVSAAVGGTVTIKCQASENIYSNLAWYQQKPGQPPKRLIYDASDLASGVPSRFSGSGYGTQFTLTISGVQCEDAATYYCQANYDSTSSSFGNVFGGGTEVVVK",
    "u": "s⁻¹",
    "koff": "9.77e-05"
  },
  {
    "binder": "CFA0307 (antibody, V domains shown) VH: QSLEESGGGLVKPGASLTLTCKASGIDFSNFYYICWVRQAPGKGLDLIACIYTVSGYTYYASWAKGRLTISKTSSTTVTLQMTSLTAADTATYFCARDLHAGITNLWGPGTLVTVSS VL: AIEMTQTPFSVSAAVGGTVTIKCQASQNIYSNLAWYQQKPGQRPKLLIYGASNLESGVPSRFKGSGSGTEYTLTISDLECADAATYYCLQGYSYSNVDDAFGGGTEVVVK",
    "u": "s⁻¹",
    "koff": 0.00263
  }
]

**Query** Requested field: koff. Item: CFA0330 (antibody, V domains shown) VH: QSLEESGGDLVEPGASLTLTCTASGFSWNSGYDMCWVRQAPGKGLEWIACIYTGSSANTAYANWAKGRFTISKTSSTTVTLQMTGLTAADTATYFCARHDDYFFDLWGPGTLVTVSS VL: DVVMTQTPASVSESVGGTVTINCQASQSIGNNLAWYQQKPGQPPKLLIYDASNLASGVPSRFKGSRSGTEPTLTNTLTISGVQCADVATYYCQSGWYGNSYVAAFGGGTEVVVKR
**Result** 0.000202
